biological target: human activated protein C (human, UniProt P04070 43-197; P04070 212-461); assay: cell-based or functional assay
property: Mean clotting time (s), FIX-deficient plasma, APC-antibody concentration 5 ug/ml

- binder: "HAPC-14-4 (antibody, V domains shown, Whole IgG, backbone hIgG1; also called HPAC 14-4) VH: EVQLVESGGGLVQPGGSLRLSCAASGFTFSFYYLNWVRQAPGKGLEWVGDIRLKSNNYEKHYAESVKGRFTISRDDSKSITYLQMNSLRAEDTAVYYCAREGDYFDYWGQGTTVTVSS VL: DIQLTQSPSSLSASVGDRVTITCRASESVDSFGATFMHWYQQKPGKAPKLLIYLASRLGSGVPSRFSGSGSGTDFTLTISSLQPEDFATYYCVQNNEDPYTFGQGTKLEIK"
  endpoint.result: 176

FYI, the data here is from patent US20250277057A1.
